Values compiled from patent US9828375B2.

Tested on: human leukemia cell line Jurkat
assay.details: In vitro tumor cell proliferation inhibition (MTT): Jurkat
Type: cell-based
study.conditions: Homo sapiens, Jurkat, 72 hours
List of IC50 values.

Request: Using the record for CN(C)CCCn1ncc2c(Oc3ccc(NC(=O)Nc4cc(C(C)(C)C)on4)cc3)ncnc21 , state its measured IC50.
Response: < 50 µM

Continuing:
Request: Using the record for CC(C)n1ncc2c(Oc3ccc(NC(=O)Nc4cc(C(C)(C)C)[nH]n4)cc3)ncnc21 , state its measured IC50.
Response: < 50 µM

Request: Using the record for O=C(Nc1cccc(Nc2ncnc3[nH]ncc23)c1)Nc1ccc(F)c(Cl)c1 , state its measured IC50.
Response: < 50 µM

Request: Using the record for O=C(Nc1ccc(Oc2ncnc3[nH]ncc23)cc1)Nc1cccc(C(F)(F)F)c1 , state its measured IC50.
Response: 4.28 µM

Request: Using the record for CC(C)(C)c1cc(NC(=O)Nc2ccc(Oc3ncnc4[nH]ncc34)cc2)no1 , state its measured IC50.
Response: 3 to 10 µM

Request: Using the record for COc1ccc(NC(=O)Nc2ccc(NC(=O)N3C=NC=C4NNC=C43)cc2)cc1 , state its measured IC50.
Response: < 50 µM

Request: Using the record for O=C(Nc1ccc(Sc2ncnc3[nH]ncc23)cc1)Nc1ccc(C(F)(F)F)cc1 , state its measured IC50.
Response: < 50 µM

Request: Using the record for O=C(Nc1ccc(Cl)c(C(F)(F)F)c1)Nc1ccc(Oc2ncnc3[nH]ncc23)cc1Cl , state its measured IC50.
Response: < 50 µM
